Target: Ubiquitin carboxyl-terminal hydrolase 10 (Homo sapiens) (UniProt Q14694)
Sequence (Q14694 whole entry, looked up): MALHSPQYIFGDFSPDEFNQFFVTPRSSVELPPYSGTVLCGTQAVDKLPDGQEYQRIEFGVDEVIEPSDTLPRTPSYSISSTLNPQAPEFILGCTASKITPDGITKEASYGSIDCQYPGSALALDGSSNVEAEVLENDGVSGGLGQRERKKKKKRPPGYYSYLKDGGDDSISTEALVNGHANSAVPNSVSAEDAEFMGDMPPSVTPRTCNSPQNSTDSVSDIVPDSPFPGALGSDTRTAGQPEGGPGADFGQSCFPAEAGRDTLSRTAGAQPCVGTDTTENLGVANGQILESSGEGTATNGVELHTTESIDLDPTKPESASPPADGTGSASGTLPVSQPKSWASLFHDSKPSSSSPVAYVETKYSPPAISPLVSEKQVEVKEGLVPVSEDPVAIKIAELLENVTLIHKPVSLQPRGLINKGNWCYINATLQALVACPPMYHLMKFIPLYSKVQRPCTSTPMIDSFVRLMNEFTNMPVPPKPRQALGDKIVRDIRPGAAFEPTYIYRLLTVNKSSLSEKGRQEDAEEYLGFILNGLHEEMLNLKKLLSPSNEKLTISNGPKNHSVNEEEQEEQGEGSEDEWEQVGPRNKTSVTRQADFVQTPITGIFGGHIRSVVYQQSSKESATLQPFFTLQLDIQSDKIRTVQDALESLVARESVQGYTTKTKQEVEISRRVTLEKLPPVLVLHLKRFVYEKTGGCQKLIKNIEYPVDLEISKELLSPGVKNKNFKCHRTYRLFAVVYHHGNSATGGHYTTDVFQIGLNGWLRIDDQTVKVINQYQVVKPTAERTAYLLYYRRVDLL
Assay: ubiquitin-specific protease 10 DUB inhibitors, concentration-effect, biochemical, verification of primary screen actives (AID 1645863);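 further: potency values describe inhibition of USP10 cleavage of a fluorogenic ubiquitin substrate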
Settings: USP10 deubiquitinase enzymatic assay
Activity calls are given as the source filed them. How the calls were made is not given here.
Your reply should match one of these outcome classes. active, inactive

Query block: # lookup: test call for Cc1cc(N2CCN(c3ncccn3)CC2)nc2ccc(NC(=O)c3ccncc3)cc12
Result block: inactive

Query block: How about this molecule: Cc1ccc(NC(=O)Nc2ccc(C)n(CC(=O)Nc3cccc(C)c3)c2=O)cc1
Result block: inactive

Query block: What would you report for COc1ccc(-c2nc(SCC(=O)Oc3c(C)cccc3C)n3[nH]c(=O)cc3n2)cc1 ?
Result block: active

Query block: Repeat for the following molecule: c1cncc(-c2cnc3sc(NCc4ccc5c(c4)OCO5)nn23)c1
Result block: inactive

Query block: What about Nc1c(-c2ccc(Cl)cc2)cnc2cc(-c3ccc(Cl)c(Cl)c3)nn12 ?
Result block: inactive

Query block: Same lookup for COC(=O)c1c(OC)cc2c(c1C)Oc1c(Cl)c(O)c(Cl)c(C)c1C(=O)O2 , please.
Result block: active

Query block: Here is the next molecule: Cc1csc(NC(=O)c2c[nH]c3ccc(F)cc3c2=O)n1
Result block: inactive

Query block: Would you mind doing CC(C)=CCCC1(C)C=Cc2c(O)c3c(c(CC=C(C)C)c2O1)OC12C(=CC4CC1C(C)(C)OC2(C/C=C(/C)C(=O)O)C4=O)C3=O (stereo not given) as well?
Result block: active

Query block: Try this molecule next: COc1cccc(NC(=O)C(Sc2cccc(NC(=O)c3ccccc3F)c2)c2ccccc2)c1 (stereo not given)
Result block: active

Query block: Then what about the molecule O=C(COc1ccc(N2CC(C(=O)NCc3ccccc3)CC2=O)cc1)Nc1ccc(F)cc1 (stereo not given) ?
Result block: inactive

Query block: What do you have for Cc1cc(C)c(NC(=O)CSc2nc3nccnc3c(=O)n2Cc2ccccc2Cl)c(C)c1 ?
Result block: inactive

Query block: Also COc1ccc(-n2c(=O)c3ccc(C(=O)NCCc4ccccc4)cc3n(CC(=O)NCc3ccco3)c2=O)cc1 , if possible.
Result block: inactive

Query block: Try CC(NC(=O)c1ccccc1)c1nc2ccccc2n1CC(=O)Nc1ccc2c(c1)OCO2 (stereo not given) next.
Result block: active

Query block: What do we get for Cc1cccc(NC(=O)Nc2nnc(CC(=O)NCc3ccccc3)s2)c1 ?
Result block: active

Query block: # repeat for O=C(c1cccc2ncccc12)N1CCN(c2ccnc3cc(Cl)ccc23)CC1
Result block: inactive

====

Target: Ubiquitin carboxyl-terminal hydrolase 10 (Homo sapiens) (UniProt Q14694)
Assay: ubiquitin-specific protease 10 DUB inhibitors, concentration-effect, biochemical, verification of primary screen actives (AID 1645863);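 further: potency values describe inhibition of USP10 cleavage of a fluorogenic ubiquitin substrate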
Conditions: USP10 deubiquitinase enzymatic assay
Activity calls are given as the source filed them. How the calls were made is not given here.
Recorded IC50 by entry

[[record]]
compound = "Cc1cccc(NC(=O)CSc2nnc(-c3n[nH]c4c3CCC4)n2N)c1C"
reported_result = "> 40 µM (inactive)"

[[record]]
compound = "Cc1c(-c2nn3c(-c4ccco4)nnc3s2)cccc1[N+](=O)[O-]"
reported_result = "> 40 µM (inactive)"

[[record]]
compound = "CCc1ccc(NC(=O)Cc2nnc3cc(-c4nc(C)no4)ccn23)cc1"
reported_result = "12.7 µM"

[[record]]
compound = "Nc1c(-c2nc(-c3ccccc3Cl)no2)nnn1-c1ccc(Cl)cc1"
reported_result = "11.5 µM"

[[record]]
compound = "O=c1c2ccccc2nc(/C=C/c2ccco2)n1Cc1ccccc1"
reported_result = "> 40 µM (inactive)"


Query block: Query IC50 on Ubiquitin carboxyl-terminal hydrolase 10 (Homo sapiens) (UniProt Q14694) for COc1cccc(C(=O)Nc2nc(-c3nnn(-c4ccc(C)c(F)c4)c3C)ns2)c1
Result block: > 40 µM (inactive)

Query block: And then CCOC(=O)c1ccc(NC(=O)Cn2c(=O)n(CC(=O)NCc3ccco3)c(=O)c3ccccc32)cc1 , what is it?
Result block: 16.2 µM

Query block: Note, next up: Cn1c(=O)c2nc(-c3ccc(Cl)cc3)nnc2n(C)c1=O
Result block: 3.21 µM
